Biological target: BTK (Homo sapiens (Human), UniProt Q06187)
Sequence (Q06187 whole entry): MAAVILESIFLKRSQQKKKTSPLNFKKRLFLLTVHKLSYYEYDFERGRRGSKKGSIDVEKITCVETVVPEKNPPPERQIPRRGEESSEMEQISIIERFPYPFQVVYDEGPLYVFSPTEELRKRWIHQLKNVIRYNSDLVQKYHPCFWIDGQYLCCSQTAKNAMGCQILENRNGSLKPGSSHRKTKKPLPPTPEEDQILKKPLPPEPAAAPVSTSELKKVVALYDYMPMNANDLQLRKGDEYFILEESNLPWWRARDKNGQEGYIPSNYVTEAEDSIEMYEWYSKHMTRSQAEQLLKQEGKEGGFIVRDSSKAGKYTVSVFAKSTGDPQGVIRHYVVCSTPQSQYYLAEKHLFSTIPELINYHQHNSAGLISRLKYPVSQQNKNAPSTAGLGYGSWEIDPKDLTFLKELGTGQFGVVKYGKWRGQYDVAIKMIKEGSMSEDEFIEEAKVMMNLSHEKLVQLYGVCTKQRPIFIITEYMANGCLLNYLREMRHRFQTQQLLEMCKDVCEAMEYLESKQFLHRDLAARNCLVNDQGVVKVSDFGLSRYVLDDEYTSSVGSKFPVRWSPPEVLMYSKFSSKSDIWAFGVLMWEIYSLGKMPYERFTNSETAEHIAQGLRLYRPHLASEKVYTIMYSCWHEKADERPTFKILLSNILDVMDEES
Assay: Kinase inhibition assay (Nanosyn, microfluidic detection), BTK
Type: biochemical
Settings: 1 mM ATP, 3 hours at 25° C.
pIC50: −log10 of the molar value.

{"compound": "C=CC(=O)N1CC[C@]2(C1)C[C@H](n1c(NC(=O)c3ccn(C)c(=O)c3)nc3ccccc31)C2 [Compound 84]", "pIC50": 7.19}
{"compound": "C=CC(=O)N1CC[C@]2(C1)C[C@H](n1c(NC(=O)c3ccc(-c4ccc(=O)n(C)c4)s3)nc3ccccc31)C2 [Compound 108]", "pIC50": 7.98}
{"compound": "C#Cc1ccc(C(=O)Nc2nc3cc(CN[C@@H](C)C(C)(C)C)ccc3n2[C@H]2C[C@@]3(CCN(C(=O)C=C)C3)C2)s1 [Compound 28]", "pIC50": 8.77}
{"compound": "C=CC(=O)N1CC[C@]2(C1)C[C@H](n1c(NC(=O)c3ccc(-c4cc(NC)ncn4)s3)nc3ccccc31)C2 [Compound 145]", "pIC50": 9.31}

====

Molecular target: TXK (Homo sapiens (Human), UniProt P42681)
Sequence (P42681 whole entry): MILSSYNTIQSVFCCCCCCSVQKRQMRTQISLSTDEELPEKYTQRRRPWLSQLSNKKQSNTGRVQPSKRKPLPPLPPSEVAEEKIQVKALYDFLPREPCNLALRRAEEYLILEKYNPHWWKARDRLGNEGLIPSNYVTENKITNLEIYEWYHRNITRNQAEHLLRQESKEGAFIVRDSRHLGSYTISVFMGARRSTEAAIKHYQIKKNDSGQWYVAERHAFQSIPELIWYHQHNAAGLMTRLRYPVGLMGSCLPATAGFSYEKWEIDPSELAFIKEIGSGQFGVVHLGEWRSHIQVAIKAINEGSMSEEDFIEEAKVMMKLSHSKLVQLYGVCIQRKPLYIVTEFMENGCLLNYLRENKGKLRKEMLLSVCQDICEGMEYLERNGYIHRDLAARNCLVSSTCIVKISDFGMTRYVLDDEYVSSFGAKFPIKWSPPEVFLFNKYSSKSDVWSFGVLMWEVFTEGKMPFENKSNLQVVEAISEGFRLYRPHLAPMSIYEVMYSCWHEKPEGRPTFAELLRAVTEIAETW
Test: Kinase inhibition assay (Nanosyn, microfluidic detection), TXK
Assay type: biochemical
Details: 1 mM ATP, 3 hours at 25° C.
hey, just use yes if measured IC50 is less than 2 nM, otherwise no

{"compound": "C=CC(=O)N1CC[C@]2(C1)C[C@H](n1c(NC(=O)c3ccc(C(=O)Nc4cccnc4)s3)nc3ccccc31)C2 [Compound 85]", "label class": "no"}
{"compound": "C=CC(=O)N1CC[C@]2(C1)C[C@H](n1c(NC(=O)c3ccc(-c4ccc(=O)[nH]c4)s3)nc3ccccc31)C2 [Compound 99]", "label class": "yes"}
{"compound": "C=CC(=O)N1CC[C@]2(C1)C[C@H](n1c(NC(=O)c3ccc(-c4ccc(CO)nc4)s3)nc3ccccc31)C2 [Compound 144]", "label class": "yes"}
{"compound": "C=CC(=O)N1CCC[C@]2(C1)C[C@@H](n1c(NC(=O)c3ccc(C(F)F)s3)nc3cc(CN[C@@H](C)C(C)(C)C)ccc31)C2 [Compound 10]", "label class": "yes"}
{"compound": "C=CC(=O)N1CC[C@]2(C1)C[C@H](n1c(NC(=O)c3ccc(-c4ccc(=O)n(C)c4)s3)nc3ccccc31)C2 [Compound 108]", "label class": "yes"}
{"compound": "C=CC(=O)N1CC[C@]2(C1)C[C@H](n1c(NC(=O)c3ccc(OC)nc3)nc3ccccc31)C2 [Compound 55]", "label class": "no"}

Source: patent US10752615B2
